Tested on: Plasmodium falciparum
TEST NAME: GSK_TCMDC: Inhibition of Plasmodium falciparum Dd2 in whole red blood cells, using parasite LDH activity as an index of growth. Test compounds present at 2uM
Format: functional
Would you please tag the item Fulfilled when its Inhibition is 20% or above, and Not fulfilled when it is below?

>  <COMPOUND>
COc1cc2nc(N3CCC(C(N)=O)CC3)nc(NCc3ccccc3)c2cc1OC

>  <CAT>
Fulfilled

$$$$
>  <COMPOUND>
Nc1nc(N)c2c(ccc3[nH]c(-c4ccccc4Cl)nc32)n1

>  <CAT>
Fulfilled

$$$$
>  <COMPOUND>
O=C(NC1CCC(N2CCC(c3nc4ccccc4s3)CC2)CC1)c1cc2ccccc2[nH]1 (centres undefined)

>  <CAT>
Fulfilled

$$$$
>  <COMPOUND>
COc1ccccc1N1CCN(CCCCNC(=O)c2ccc(NC(=O)c3ccc(OC(F)(F)F)cc3)cc2)CC1.Cl

>  <CAT>
Fulfilled

$$$$
>  <COMPOUND>
CC(=O)N1N=C(c2ccc(F)cc2)Sc2c1nc(-c1ccccc1)n2C(C)=O

>  <CAT>
Fulfilled

$$$$
>  <COMPOUND>
O=C(/C=C/c1c(Cl)cccc1Cl)NC1CCC(CN2CCC(c3c[nH]c4ccncc34)CC2)CC1 (centres undefined)

>  <CAT>
Fulfilled

$$$$
>  <COMPOUND>
CC1CCC2(CC1)NC(N)=NC(=N)N2OCCCCCCCCO (centres undefined)

>  <CAT>
Fulfilled

$$$$
>  <COMPOUND>
O=C(CCc1c[nH]cn1)Nc1cccc(-c2ccc(-c3nc4ccccc4[nH]3)cc2)c1

>  <CAT>
Fulfilled

$$$$
>  <COMPOUND>
OC(c1ccccc1)C1CN(CCc2ccccc2)CCC1(O)c1ccccc1 (centres undefined)

>  <CAT>
Fulfilled

$$$$
>  <COMPOUND>
Cc1c(S(=O)(=O)Nc2cccc(CCN3CCCCC3CCN3CCCC3)c2)sc2ccc(Cl)cc12 (centres undefined)

>  <CAT>
Not fulfilled

$$$$
>  <COMPOUND>
CCCCCCN1CCC(CNCc2cccc([N+](=O)[O-])c2)CC1.O=C(O)C(F)(F)F

>  <CAT>
Not fulfilled

$$$$
>  <COMPOUND>
O=C(NCCN1CCCC1)c1cccc(Nc2nccc(Nc3ccc(Oc4ccccc4)cc3)n2)c1

>  <CAT>
Not fulfilled

$$$$
>  <COMPOUND>
COc1ccc2[nH]c(C)cc(=NN=Cc3ccncc3)c2c1

>  <CAT>
Fulfilled

$$$$
>  <COMPOUND>
Cc1ccc(C(=O)Nc2cccc([N+](=O)[O-])c2)cc1S(=O)(=O)N1CC(C)CC(C)C1 (centres undefined)

>  <CAT>
Fulfilled

$$$$
>  <COMPOUND>
CC(C)C[C@H](NC(=O)c1cc(-c2ccc(F)cc2)no1)C(=O)O.CC(C)C[C@H](NC(=O)c1conc1-c1ccc(F)cc1)C(=O)O

>  <CAT>
Not fulfilled

$$$$
>  <COMPOUND>
O=C(Cc1cccc(Cl)c1)N1CCc2cc3nccc(N4CCN5CCC[C@H]5C4)c3cc21

>  <CAT>
Not fulfilled

$$$$
>  <COMPOUND>
CN(C)Cc1cccc(-c2cc3c(-c4cnn(C)c4)c(Cl)cnc3[nH]2)c1

>  <CAT>
Fulfilled

$$$$
>  <COMPOUND>
OC[C@H]1CCCN1CC#Cc1cc2c(Nc3ccc(OCc4cccc(F)c4)c(Cl)c3)ncnc2s1

>  <CAT>
Not fulfilled

$$$$
>  <COMPOUND>
CCCC(C(CC1CCC(C)CC1)C(=O)NC(CCCNc1ncccn1)C(=O)Nc1nccs1)N(O)C=O (centres undefined)

>  <CAT>
Fulfilled

$$$$

====

System: Plasmodium falciparum
TEST NAME: GSK_TCMDC: Inhibition of Plasmodium falciparum 3D7 in whole red blood cells, using parasite LDH activity as an index of growth. Test compounds present at 2uM
Type: functional
Entries and their Inhibition values follow.

>  <COMPOUND>
COc1ccc2nccc([C@@H](O)CN3CCC(NCc4ccc5nnsc5c4)CC3)c2c1.O=C(O)C(=O)O

>  <Inhibition / %>
99

$$$$
>  <COMPOUND>
CC(C)(C)OC(=O)NCc1ccc(Nc2nnc(-c3ccc(OCC(=O)NCc4cc(C(F)(F)F)cc(C(F)(F)F)c4)c([N+](=O)[O-])c3)o2)cc1

>  <Inhibition / %>
97

$$$$
>  <COMPOUND>
CCCCOc1c(CCNCCCCNCCc2cc(F)c3ccccc3c2OCCCC)cc(F)c2ccccc12.CS(=O)(=O)O

>  <Inhibition / %>
96

$$$$
>  <COMPOUND>
O=C(Nc1cccc(-c2ccc(-c3nc4cc(C(F)(F)F)ccc4[nH]3)cc2)c1)Nc1ccc(F)c(F)c1F

>  <Inhibition / %>
100

$$$$
>  <COMPOUND>
O=C(NCCc1ccccc1)N(Cc1ccccc1-c1cccc(CNC2CCCC2)c1)C1CCN(Cc2ccccc2)CC1.O=C(O)C(F)(F)F

>  <Inhibition / %>
95

$$$$
>  <COMPOUND>
COc1ccc(-c2ccc(NC(=O)c3cccc(Cl)c3)cc2)cc1CN1CCCN(C)CC1.O=C(O)C(F)(F)F

>  <Inhibition / %>
95

$$$$
>  <COMPOUND>
O=C(Nc1nc2cc(S(=O)(=O)NCCc3ccc(F)cc3)ccc2n1CCCn1ccnc1)c1ccc(Cl)cc1.O=C(O)C(F)(F)F

>  <Inhibition / %>
100

$$$$
>  <COMPOUND>
CC(C)N1CCN(C(CN2CCN(CCCOc3ccc4nonc4c3)CC2)c2ccc(F)cc2)CC1.Cl (stereo unspecified)

>  <Inhibition / %>
97

$$$$
>  <COMPOUND>
Cc1ccc(/C=C/C(=O)NC2CCC(N3CCC(c4ccccc4C)CC3)CC2)cc1F (stereo unspecified)

>  <Inhibition / %>
96

$$$$
>  <COMPOUND>
O=C(N[C@H]1CCN(Cc2ccc(OCCN3CCNCC3)c3ccccc23)C1)c1ccc(Cl)c(Cl)c1.O=C(O)C(F)(F)F

>  <Inhibition / %>
100

$$$$
>  <COMPOUND>
Cc1cccc2nc(-c3cccc(-c4cccc(CN5CCC(CO)CC5)c4)c3)[nH]c12.O=C(O)C(F)(F)F

>  <Inhibition / %>
100

$$$$
>  <COMPOUND>
Cc1[nH]c(C)c(-c2ccc(Oc3ccc(C(F)(F)F)cc3)cc2)c(=O)c1Br

>  <Inhibition / %>
97

$$$$
>  <COMPOUND>
CCCc1cc(OC)c(CC2c3cc(O)c(Cl)cc3C(c3ccccc3)CN2C)cc1OC.Cl (stereo unspecified)

>  <Inhibition / %>
100

$$$$
>  <COMPOUND>
CO/N=C(\C)c1ccc2c(c1)CCN(CCC1CCC(NC(=O)/C=C/c3ccc(F)cc3)CC1)CC2.Cl (stereo unspecified)

>  <Inhibition / %>
95

$$$$
>  <COMPOUND>
O=C(/C=C/c1ccc(Cl)c(Cl)c1)NCC[C@@H]1C[C@H]1CCN1CCC(c2c[nH]c3ccccc23)CC1

>  <Inhibition / %>
96

$$$$
>  <COMPOUND>
CC(C)[C@@H](NC(=O)NC1CCC(CCN2C3CCC2CC(OC(=O)C(CO)c2ccccc2)C3)CC1)C(O)(c1ccccc1)c1ccccc1 (stereo partly specified)

>  <Inhibition / %>
96

$$$$

====

Entries and their Inhibition values follow.
System: HepG2
TEST NAME: GSK_TCMDC: Percent inhibition of human HepG2 cell line. Test compounds present at 10uM.
Type: functional
MEASURED PROPERTY: Inhibition (%)

>  <COMPOUND>
COc1cc2ccccc2cc1CNCCCCCCNCc1cc2ccccc2cc1OC.CS(=O)(=O)O

>  <OBSERVED>
98

$$$$
>  <COMPOUND>
O=C(O)C(F)(F)F.O=S(=O)(NCCN1CCCC1)c1ccc(-c2ccc(CNCc3ccsc3)cc2)s1

>  <OBSERVED>
31

$$$$
>  <COMPOUND>
O=C(NC1CCCCC1)N(Cc1ccc(-c2cccc(CNCc3ccc4c(c3)OCO4)c2)cc1)C1CCN(Cc2ccccc2)CC1.O=C(O)C(F)(F)F

>  <OBSERVED>
23

$$$$
>  <COMPOUND>
Cl.Oc1cccc(-c2nc3cc(C4=NC5CCCCC5N4)ccc3[nH]2)c1 (centres undefined)

>  <OBSERVED>
0

$$$$

====

Tested on: Plasmodium falciparum
TEST NAME: GSK_TCMDC: Inhibition of Plasmodium falciparum 3D7 in whole red blood cells, using parasite LDH activity as an index of growth. Test compounds present at 2uM
Assay type: functional
MEASURED PROPERTY: Inhibition (%)

>  <SMILES REPR>
COc1cccc(C2CCN(CCN3CCC(NC(=O)c4ccc(-c5ccc(Cl)cc5)cc4)CC3)CC2)c1

>  <OBSERVED>
93

$$$$
>  <SMILES REPR>
c1ccc(-c2nc(NCCCn3ccnc3)cc(-c3ccncc3)n2)cc1

>  <OBSERVED>
100

$$$$
>  <SMILES REPR>
CCN(CC)c1ccc(C(c2ccc(N(CC)CC)cc2)c2ccc([N+](=O)[O-])cc2)cc1

>  <OBSERVED>
82

$$$$
>  <SMILES REPR>
COCCNCc1ncsc1-c1ccc2c(Nc3ccc(Oc4ccccc4)cc3)ccnc2c1

>  <OBSERVED>
91

$$$$
>  <SMILES REPR>
COc1ccc2[nH]c(C)cc(=NN=Cc3ccccc3Cl)c2c1

>  <OBSERVED>
100

$$$$
